- COND: 323.15 K; 101.33 kPa; Liquid; Sing-around technique in a fixed-path interferometer
REPORTED ENDPOINT: speed of sound (m/s)
# value in m/s; strip the unit string

Here's what some known entries look like.
>>> experimental_value("CCCC[n+]1ccn(C2CCCC2)c1.O=S(=O)([N-]S(=O)(=O)C(F)(F)F)C(F)(F)F")
1212.1
>>> experimental_value("CCCCn1cc[n+](CCC(C)C)c1.O=S(=O)([N-]S(=O)(=O)C(F)(F)F)C(F)(F)F")
1160.6
>>> experimental_value("CCCCn1cc[n+](C(CC)CC)c1.O=S(=O)([N-]S(=O)(=O)C(F)(F)F)C(F)(F)F")
1155.4

Proceed to the following item.
Prompt: If you can, please state the reported speed of sound value of CCCCC[n+]1ccn(CCCC)c1.O=S(=O)([N-]S(=O)(=O)C(F)(F)F)C(F)(F)F .
Completion: 1157.5

* * *

- COND: 331.15 K; 101.33 kPa; Liquid; Vibrating tube method
Numbers after ± are expanded uncertainties.
Readings of mass density for the listed molecules
Don't forget the unit after the value.

Prompt: Param item = CCCCn1cc[n+](CCC(C)C)c1.O=S(=O)([N-]S(=O)(=O)C(F)(F)F)C(F)(F)F ; retrieve measured mass density.
Completion: 1289.1 ± 9.1 kg/m3

Prompt: Sample CCCCn1cc[n+](C(CC)CC)c1.O=S(=O)([N-]S(=O)(=O)C(F)(F)F)C(F)(F)F — what was its mass density?
Completion: 1290.5 ± 9.1 kg/m3

Prompt: Given CCCCC[n+]1ccn(CCCC)c1.O=S(=O)([N-]S(=O)(=O)C(F)(F)F)C(F)(F)F , state its recorded mass density.
Completion: 1288.3 ± 9 kg/m3

Prompt: Recorded mass density for CCCC[n+]1ccn(C2CCCC2)c1.O=S(=O)([N-]S(=O)(=O)C(F)(F)F)C(F)(F)F , please?
Completion: 1344.9 ± 9.9 kg/m3

* * *

- COND: 327.15 K; 101.33 kPa; Liquid; Sing-around technique in a fixed-path interferometer
REPORTED ENDPOINT: speed of sound (m/s)
Kindly answer with a numeric value in m/s, unit omitted.

Example entries and their recorded answers appear below.
>>> experimental_value("CCCCC[n+]1ccn(CCCC)c1.O=S(=O)([N-]S(=O)(=O)C(F)(F)F)C(F)(F)F")
1148.7
>>> experimental_value("CCCC[n+]1ccn(C2CCCC2)c1.O=S(=O)([N-]S(=O)(=O)C(F)(F)F)C(F)(F)F")
1203
>>> experimental_value("CCCCn1cc[n+](C(CC)CC)c1.O=S(=O)([N-]S(=O)(=O)C(F)(F)F)C(F)(F)F")
1146.6

Prompt: I would be grateful if you could share the reported speed of sound for CCCCn1cc[n+](CCC(C)C)c1.O=S(=O)([N-]S(=O)(=O)C(F)(F)F)C(F)(F)F .
Completion: 1151.8

* * *

- RUN DESCRIPTION: molar heat capacity at constant pressure
- COND: 345.15 K; 101.33 kPa; Liquid; DSC
Numbers after ± are expanded uncertainties.
REPORTED ENDPOINT: molar heat capacity at constant pressure
Quote the value and follow it with the unit of measurement.

Worked cases, answers included:
>>> experimental_value("CCCCn1cc[n+](C(CC)CC)c1.O=S(=O)([N-]S(=O)(=O)C(F)(F)F)C(F)(F)F")
"732.61 ± 28 J/K/mol"
>>> experimental_value("CCCC[n+]1ccn(C2CCCC2)c1.O=S(=O)([N-]S(=O)(=O)C(F)(F)F)C(F)(F)F")
"687.65 ± 27 J/K/mol"
>>> experimental_value("CCCCn1cc[n+](CCC(C)C)c1.O=S(=O)([N-]S(=O)(=O)C(F)(F)F)C(F)(F)F")
"721.43 ± 28 J/K/mol"

Prompt: # query: molar heat capacity at constant pressure of entry CCCCC[n+]1ccn(CCCC)c1.O=S(=O)([N-]S(=O)(=O)C(F)(F)F)C(F)(F)F
Completion: 721.86 ± 28 J/K/mol

* * *

- RUN DESCRIPTION: molar heat capacity at constant pressure
- COND: 299.15 K; 101.33 kPa; Liquid; DSC
REPORTED ENDPOINT: molar heat capacity at constant pressure (J/K/mol)
# number only, unit J/K/mol dropped from output

>>> experimental_value("CCCCn1cc[n+](C(CC)CC)c1.O=S(=O)([N-]S(=O)(=O)C(F)(F)F)C(F)(F)F")
697.52
>>> experimental_value("CCCCn1cc[n+](CCC(C)C)c1.O=S(=O)([N-]S(=O)(=O)C(F)(F)F)C(F)(F)F")
686.48
>>> experimental_value("CCCCC[n+]1ccn(CCCC)c1.O=S(=O)([N-]S(=O)(=O)C(F)(F)F)C(F)(F)F")
687.96

Prompt: Find the recorded molar heat capacity at constant pressure belonging to CCCC[n+]1ccn(C2CCCC2)c1.O=S(=O)([N-]S(=O)(=O)C(F)(F)F)C(F)(F)F and report it.
Completion: 652.8

* * *

- COND: 317.15 K; 101.33 kPa; Liquid; Sing-around technique in a fixed-path interferometer
± gives the expanded uncertainty stated by the source.
Below: a set of entries, each annotated with reported speed of sound.
Returns: string containing the number followed by the unit.

>>> experimental_value("CCCCn1cc[n+](C(CC)CC)c1.O=S(=O)([N-]S(=O)(=O)C(F)(F)F)C(F)(F)F")
"1168.6 ± 5 m/s"
>>> experimental_value("CCCCn1cc[n+](CCC(C)C)c1.O=S(=O)([N-]S(=O)(=O)C(F)(F)F)C(F)(F)F")
"1173.9 ± 5 m/s"
>>> experimental_value("CCCCC[n+]1ccn(CCCC)c1.O=S(=O)([N-]S(=O)(=O)C(F)(F)F)C(F)(F)F")
"1170.7 ± 5 m/s"

Kindly review the next molecule as well.
Prompt: Need speed of sound, item CCCC[n+]1ccn(C2CCCC2)c1.O=S(=O)([N-]S(=O)(=O)C(F)(F)F)C(F)(F)F
Completion: 1226 ± 5 m/s
